# EXPERIMENT_SUMMARY: Phase-1 drug-drug interaction study in healthy volunteers (Compound (III) 800 mg, SMV 150 mg, Odalasvir 150 mg loading then 50 mg, once daily): plasma PK
# Assay type: in vivo, human
# CONDITIONS: both sexes, human, in vivo, Group 2, Day 13 (Compound (III) + SMV); read-out: Cmax

COMPOUND | Cmax
CC(C)OC(=O)[C@H](C)N[P@](=O)(OC[C@@]1(F)O[C@@H](n2ccc(=O)[nH]c2=O)[C@](C)(O)[C@@H]1O)Oc1ccccc1 [Compound (III)] | 516 ng/mL

---

# EXPERIMENT_SUMMARY: Phase-1 drug-drug interaction study in healthy volunteers (Compound (III) 800 mg, SMV 150 mg, Odalasvir 150 mg loading then 50 mg, once daily): plasma PK
# Format: in vivo, human
# CONDITIONS: both sexes, human, in vivo, Group 1, Day 13 (Compound (III) + SMV); read-out: AUC0-24
# Source text: The following daily doses were employed:
QUANTITY_NAME: AUC0-24 (ng·h/mL)

SMILES_DATA | QUANTITY_NAME | READOUT_NUMBER
CC(C)OC(=O)[C@H](C)N[P@](=O)(OC[C@@]1(F)O[C@@H](n2ccc(=O)[nH]c2=O)[C@](C)(O)[C@@H]1O)Oc1ccccc1 | AUC0-24 | 1000

---

# EXPERIMENT_SUMMARY: PK of single agents vs fixed dose combinations (FDC), single oral dose in healthy volunteers
# Assay type: in vivo, human
# CONDITIONS: human, plasma, oral, Arm 3: FDC04; read-out: AUC∞ (mean ± SD)
Let's look at some molecules and their measured AUC(0-inf).

MOLECULE | AUC(0-inf)
COc1ccc2c(O[C@@H]3C[C@H]4C(=O)N[C@]5(C(=O)NS(=O)(=O)C6CC6)C[C@H]5/C=C\CCCCN(C)C(=O)[C@@H]4C3)cc(-c3nc(C(C)C)cs3)nc2c1C [SMV, Simeprevir, reference compound] | 13400 ng·h/mL
C[C@H](NP(=O)(O)OC[C@@]1(F)O[C@@H](n2ccc(=O)[nH]c2=O)[C@](C)(O)[C@@H]1O)C(=O)O [Compound A-3] | 914 ng·h/mL
C[C@]1(O)[C@H](n2ccc(=O)[nH]c2=O)O[C@](F)(CO)[C@H]1O [Compound A-1] | 5380 ng·h/mL
COC(=O)N[C@H](C(=O)N1[C@H](c2nc3cc(-c4cc5ccc4CCc4ccc(c(-c6ccc7[nH]c([C@@H]8C[C@@H]9CCCC[C@@H]9N8C(=O)[C@@H](NC(=O)OC)C(C)C)nc7c6)c4)CC5)ccc3[nH]2)C[C@@H]2CCCC[C@@H]21)C(C)C [ODV, Odalasvir] | 14800 ng·h/mL

---

# EXPERIMENT_SUMMARY: PK of single agents vs fixed dose combinations (FDC), single oral dose in healthy volunteers
# Assay type: in vivo, human
# CONDITIONS: human, plasma, oral, Arm 2: FDC02; read-out: AUClast (mean ± SD)
QUANTITY_NAME: AUC(0-t) (ng·h/mL)

MOLECULE | READOUT_NUMBER
COC(=O)N[C@H](C(=O)N1[C@H](c2nc3cc(-c4cc5ccc4CCc4ccc(c(-c6ccc7[nH]c([C@@H]8C[C@@H]9CCCC[C@@H]9N8C(=O)[C@@H](NC(=O)OC)C(C)C)nc7c6)c4)CC5)ccc3[nH]2)C[C@@H]2CCCC[C@@H]21)C(C)C | 5590
C[C@H](NP(=O)(O)OC[C@@]1(F)O[C@@H](n2ccc(=O)[nH]c2=O)[C@](C)(O)[C@@H]1O)C(=O)O | 790
COc1ccc2c(O[C@@H]3C[C@H]4C(=O)N[C@]5(C(=O)NS(=O)(=O)C6CC6)C[C@H]5/C=C\CCCCN(C)C(=O)[C@@H]4C3)cc(-c3nc(C(C)C)cs3)nc2c1C [SMV, Simeprevir, reference compound] | 12700
C[C@]1(O)[C@H](n2ccc(=O)[nH]c2=O)O[C@](F)(CO)[C@H]1O | 4680

---

# EXPERIMENT_SUMMARY: PK of single agents vs fixed dose combinations (FDC), single oral dose in healthy volunteers
# Format: in vivo, human
# CONDITIONS: human, plasma, oral, Arm 4: FDC01, SMV 100 mg + ODV 50 mg (copovidone and poloxamers) + Compound (III) 800 mg; read-out: Cmax (mean ± SD)
Entries and their measured Cmax follow.

COMPOUND | Cmax
COC(=O)N[C@H](C(=O)N1[C@H](c2nc3cc(-c4cc5ccc4CCc4ccc(c(-c6ccc7[nH]c([C@@H]8C[C@@H]9CCCC[C@@H]9N8C(=O)[C@@H](NC(=O)OC)C(C)C)nc7c6)c4)CC5)ccc3[nH]2)C[C@@H]2CCCC[C@@H]21)C(C)C | 298 ng/mL
COc1ccc2c(O[C@@H]3C[C@H]4C(=O)N[C@]5(C(=O)NS(=O)(=O)C6CC6)C[C@H]5/C=C\CCCCN(C)C(=O)[C@@H]4C3)cc(-c3nc(C(C)C)cs3)nc2c1C [SMV, Simeprevir, reference compound] | 856 ng/mL
C[C@H](NP(=O)(O)OC[C@@]1(F)O[C@@H](n2ccc(=O)[nH]c2=O)[C@](C)(O)[C@@H]1O)C(=O)O | 197 ng/mL
C[C@]1(O)[C@H](n2ccc(=O)[nH]c2=O)O[C@](F)(CO)[C@H]1O | 607 ng/mL

---

# EXPERIMENT_SUMMARY: PK of single agents vs fixed dose combinations (FDC), single oral dose in healthy volunteers
# Format: in vivo, human
# CONDITIONS: human, plasma, oral, Arm 2: FDC02; read-out: AUC∞ (mean ± SD)
# maps each entry to its AUC(0-inf)

COMPOUND | AUC(0-inf) (ng·h/mL)
COC(=O)N[C@H](C(=O)N1[C@H](c2nc3cc(-c4cc5ccc4CCc4ccc(c(-c6ccc7[nH]c([C@@H]8C[C@@H]9CCCC[C@@H]9N8C(=O)[C@@H](NC(=O)OC)C(C)C)nc7c6)c4)CC5)ccc3[nH]2)C[C@@H]2CCCC[C@@H]21)C(C)C | 7040
COc1ccc2c(O[C@@H]3C[C@H]4C(=O)N[C@]5(C(=O)NS(=O)(=O)C6CC6)C[C@H]5/C=C\CCCCN(C)C(=O)[C@@H]4C3)cc(-c3nc(C(C)C)cs3)nc2c1C [SMV, Simeprevir, reference compound] | 13200
C[C@H](NP(=O)(O)OC[C@@]1(F)O[C@@H](n2ccc(=O)[nH]c2=O)[C@](C)(O)[C@@H]1O)C(=O)O | 817
C[C@]1(O)[C@H](n2ccc(=O)[nH]c2=O)O[C@](F)(CO)[C@H]1O | 4370

---

# EXPERIMENT_SUMMARY: Phase-1 drug-drug interaction study in healthy volunteers (Compound (III) 800 mg, SMV 150 mg, Odalasvir 150 mg loading then 50 mg, once daily): plasma PK
# Type: in vivo, human
# CONDITIONS: both sexes, human, plasma, oral, Group 2, Day 13 (ODV + Compound (III)); read-out: AUC0-24

SMILES_DATA | AUC0-24 / ng·h/mL
COC(=O)N[C@H](C(=O)N1[C@H](c2nc3cc(-c4cc5ccc4CCc4ccc(c(-c6ccc7[nH]c([C@@H]8C[C@@H]9CCCC[C@@H]9N8C(=O)[C@@H](NC(=O)OC)C(C)C)nc7c6)c4)CC5)ccc3[nH]2)C[C@@H]2CCCC[C@@H]21)C(C)C | 10200

---

# EXPERIMENT_SUMMARY: PK of single agents vs fixed dose combinations (FDC), single oral dose in healthy volunteers
# Type: in vivo, human
# CONDITIONS: human, in vivo, Arm 4: FDC01; read-out: AUClast (mean ± SD)

COMPOUND | AUC(0-t)
CC(C)OC(=O)[C@H](C)N[P@](=O)(OC[C@@]1(F)O[C@@H](n2ccc(=O)[nH]c2=O)[C@](C)(O)[C@@H]1O)Oc1ccccc1 [Compound (III)] | 1830 ng·h/mL

---

# EXPERIMENT_SUMMARY: Phase-1 drug-drug interaction study in healthy volunteers (Compound (III) 800 mg, SMV 150 mg, Odalasvir 150 mg loading then 50 mg, once daily): plasma PK
# Format: in vivo, human
# CONDITIONS: both sexes, human, plasma, oral, Group 1, Day 23 (SMV + Compound (III) + ODV); read-out: AUC0-24
QUANTITY_NAME: AUC0-24

COMPOUND | QUANTITY_NAME | RESULT
COC(=O)N[C@H](C(=O)N1[C@H](c2nc3cc(-c4cc5ccc4CCc4ccc(c(-c6ccc7[nH]c([C@@H]8C[C@@H]9CCCC[C@@H]9N8C(=O)[C@@H](NC(=O)OC)C(C)C)nc7c6)c4)CC5)ccc3[nH]2)C[C@@H]2CCCC[C@@H]21)C(C)C [ODV, Odalasvir] | AUC0-24 | 12800 ng·h/mL
